system: RIVA; assay: growth inhibition by drug plus 177Lu-lilotomab satetraxetan (1 - RLU/untreated control) (fraction); higher = stronger inhibition; conditions: 10 nM; time (day): 4; 177Lu-lilotomab satetraxetan 0.5 ug/ml
I'd be grateful if you could share measured growth inhibition by drug plus 177Lu-lilotomab satetraxetan for these entries.
One number for each entry.

Guide cases for growth inhibition by drug plus 177Lu-lilotomab satetraxetan, answers given:
compound	measured-value
CCOc1cc(C(=O)Nc2ccc(Cl)c(-c3nc4ccccc4[nH]3)c2)cc(OCC)c1OCC	0.548
CC[C@@H]1C(=O)N(C)c2cnc(Nc3ccc(C(=O)NC4CCN(C)CC4)cc3OC)nc2N1C1CCCC1	0.959
Cc1nc(N)sc1-c1ccnc(Nc2ccc(N3CCOCC3)cc2)n1	0.481
CN(c1ncccc1CNc1nc(Nc2ccc3c(c2)CC(=O)N3)ncc1C(F)(F)F)S(C)(=O)=O	0.636
Cn1cnc2c(F)c(Nc3ccc(Br)cc3Cl)c(C(=O)NOCCO)cc21 [AZD6244 (Selumetinib)]	0.491
CN1CCN(c2ccc3nc(-c4c(N)c5c(F)cccc5[nH]c4=O)[nH]c3c2)CC1	0.501
COc1cccc2c1C(=O)c1c(O)c3c(c(O)c1C2=O)C[C@@](O)(C(=O)CO)C[C@@H]3O[C@H]1C[C@H](N)[C@H](O)[C@H](C)O1	0.879

Proceeding to the next compound to report its growth inhibition by drug plus 177Lu-lilotomab satetraxetan.
Input line: Tell me reported growth inhibition by drug plus 177Lu-lilotomab satetraxetan for CC(C)C[C@H](NC(=O)CNC(=O)c1cc(Cl)ccc1Cl)B1OC(=O)C(CC(=O)O)(CC(=O)O)O1 , tested with RIVA.
Output line: 0.596

====

test system: RIVA; assay: growth inhibition by drug alone (1 - RLU/untreated control) (fraction); higher = stronger inhibition; conditions: 10 nM; time (day): 6; 177Lu-lilotomab satetraxetan 0 ug/ml
property-label: growth inhibition by drug alone
Numbers only.

Guide cases for growth inhibition by drug alone, answers given:
Cc1c(CCOc2ccc(C(=O)O)cc2)c2cc(Cl)ccc2n1C(c1ccccc1)c1ccccc1 -0.473
Cc1ccc(NC(=O)c2ccc(CN3CCN(C)CC3)cc2)cc1Nc1nccc(-c2cccnc2)n1 -0.626
Cc1ccc(NC(=O)c2ccc(CN3CC[C@H](N(C)C)C3)c(C(F)(F)F)c2)cc1Nc1nccc(-c2cncnc2)n1 0.188

Input line: // returns reported growth inhibition by drug alone for input Nc1nc2[nH]cc(CCc3ccc(C(=O)N[C@@H](CCC(=O)O)C(=O)O)cc3)c2c(=O)[nH]1
Output line: -0.489

====

system: U-2932; test: growth inhibition by drug alone (1 - RLU/untreated control) (fraction); higher = stronger inhibition; settings: 1000 nM; time (day): 6; 177Lu-lilotomab satetraxetan 0 ug/ml
Structures can show the parent of a compound that is named as a salt.
Field: class. Source value: growth inhibition by drug alone. Ranges: lo = under -0.1, med = from -0.1 up to 0.6, hi = 0.6 and over

Check out these entries, answers already filled in.
molecule	label-class
NC(=O)c1ccc(-c2nc(-c3ccccn3)c(-c3ccc4c(c3)OCO4)[nH]2)cc1	med
CC(C)(C)c1cnc(CSc2cnc(NC(=O)C3CCNCC3)s2)o1	hi
Clc1ccc(Nc2nnc(Cc3ccncc3)c3ccccc23)cc1 [Vatalanib dihydrochloride (PTK787)]	lo
Cc1cccc(-c2[nH]c(C(C)(C)C)nc2-c2ccc3nccnc3c2)n1	med
CN1CCN(CCOc2cc(OC3CCOCC3)c3c(Nc4c(Cl)ccc5c4OCO5)ncnc3c2)CC1	lo

Now look at this entry.
Input line: Category lookup for the molecule Cc1nnc(C(C)C)n1C1C[C@H]2CC[C@@H](C1)N2CC[C@H](NC(=O)C1CCC(F)(F)CC1)c1ccccc1 (stereo in doubt)
Output line: lo

====

I'd be grateful if you could share measured growth inhibition by drug plus 177Lu-lilotomab satetraxetan for these entries.
test system: U-2932; assay: growth inhibition by drug plus 177Lu-lilotomab satetraxetan (1 - RLU/untreated control) (fraction); higher = stronger inhibition; settings: 1000 nM; time (day): 6; 177Lu-lilotomab satetraxetan 1 ug/ml
Counter-ions that a name gives are not always drawn.
Numbers only.

Guide cases for growth inhibition by drug plus 177Lu-lilotomab satetraxetan, answers given:
molecule	measured-value
COc1cc2ncnc(Nc3cccc(Br)c3)c2cc1OC	0.0515
O=c1cc(N2CCOCC2)oc2c(-c3cccc4c3sc3ccccc34)cccc12	0.421
Nc1nc(Nc2ccc(S(N)(=O)=O)cc2)nn1C(=O)c1c(F)cccc1F	0.719
Nc1cc(C(F)(F)F)c(-c2cc(N3CCOCC3)nc(N3CCOCC3)n2)cn1	0.455
Cc1cnc(NC(=O)Nc2cc(Br)c(C)cc2OC[C@@H]2CNCCO2)cn1	0.486
COc1ccc2c3n(c(=NC(=O)c4cccnc4)nc2c1OC)CCN3	0.278
CCOc1ccn(-c2ccc(F)cc2)c(=O)c1C(=O)Nc1ccc(Oc2ccnc(N)c2Cl)c(F)c1	0.259
O=c1[nH]nc(Sc2ncc([N+](=O)[O-])s2)n1-c1ccc2c(c1)OCCO2	0.409

For each of the molecules below, state growth inhibition by drug plus 177Lu-lilotomab satetraxetan.
1. C[C@@H]1CN(CC(=O)Nc2ccc3c(c2)Cc2cccc(-c4cc(=O)cc(N5CCOCC5)o4)c2S3)C[C@H](C)O1
2. CCN(CC)CCOc1ccc(Nc2ncc3cc(-c4c(Cl)cccc4Cl)c(=O)n(C)c3n2)cc1

Output line:
[0.0421, 0.984]

For each of the molecules below, state growth inhibition by drug plus 177Lu-lilotomab satetraxetan.
1. Nc1nc(Cl)nc2c1ncn2[C@@H]1O[C@H](CO)[C@@H](O)[C@@H]1F
2. c1ccc2c(CCNc3ccc(Nc4ccncc4)cc3)c[nH]c2c1
3. C[S+]([O-])c1ccc(-c2nc(-c3ccc(F)cc3)c(-c3ccncc3)[nH]2)cc1 (centres undefined)
4. COCC[n+]1c2c(n(Cc3cnccn3)c1C)C(=O)c1ccccc1C2=O
5. Nc1ncn([C@@H]2O[C@H](CO)[C@@H](O)[C@H]2O)c(=O)n1
6. CC(c1cc2ccccc2s1)N(O)C(N)=O (centres undefined)
7. COc1ccc(/C=C\c2cc(OC)c(OC)c(OC)c2)cc1O
8. Cc1cc(Nc2cc(N3CCN(C)CC3)nc(/C=C/c3ccccc3)n2)n[nH]1

Output line:
1: 0.985; 2: 0.292; 3: 0.374; 4: 0.991; 5: 0.324; 6: 0.0666; 7: 0.988; 8: 0.323

For each of the molecules below, state growth inhibition by drug plus 177Lu-lilotomab satetraxetan.
1. Nc1nc(OCc2cc(Br)cs2)c2[nH]cnc2n1
2. CCN(CC)CCNC(=O)c1c(C)[nH]c(/C=C2\C(=O)Nc3ccc(F)cc32)c1C [Sunitinib Malate (Sutent)]
3. NC(=O)c1ccc2nc(-c3ccc(Oc4ccc(Cl)cc4)cc3)[nH]c2c1
4. COC(=O)C1=C(C)NC(C)=C(C(=O)OCCCN2CCC(c3ccccc3)(c3ccccc3)CC2)[C@H]1c1cccc([N+](=O)[O-])c1 [S-(+)-Niguldipine hydrochloride]

Output line:
[0.00957, -0.033, 0.0425, 0.268]

====

test system: U-2932; assay: growth inhibition by drug plus 177Lu-lilotomab satetraxetan (1 - RLU/untreated control) (fraction); higher = stronger inhibition; conditions: 1000 nM; time (day): 6; 177Lu-lilotomab satetraxetan 1 ug/ml
I'd be grateful if you could share measured growth inhibition by drug plus 177Lu-lilotomab satetraxetan for these entries.
Give bare numbers.

For each of the compounds below, state growth inhibition by drug plus 177Lu-lilotomab satetraxetan.
1. C[C@]12CC[C@H](O)CC1=CC[C@@H]1[C@@H]2CC[C@]2(C)C(c3cccnc3)=CC[C@@H]12
2. O=C(O)CCc1ccc(NCc2cccc(Oc3ccccc3)c2)cc1
3. Cn1cncc1[C@@](N)(c1ccc(Cl)cc1)c1ccc2c(c1)c(-c1cccc(Cl)c1)cc(=O)n2C [Tipifarnib (Zarnestra)]
4. OCCn1cc(-c2cnc3nnn(Cc4ccc5ncccc5c4)c3n2)cn1

Output line:
1. 0.163
2. 0.126
3. 0.882
4. 0.176

====

system: RIVA; test: growth inhibition by drug plus 177Lu-lilotomab satetraxetan (1 - RLU/untreated control) (fraction); higher = stronger inhibition; conditions: 100 nM; time (day): 4; 177Lu-lilotomab satetraxetan 0.5 ug/ml
Quick rule: growth inhibition by drug plus 177Lu-lilotomab satetraxetan of at least 0.5 means Yes, below that means No.

Check out these entries, answers already filled in.
compound	label-class
CC1(COc2ccc3c(c2)ncn3-c2ccc3cccc(N4CCC(N)CC4)c3n2)COC1	No
Nc1nc2[nH]cc(CCc3ccc(C(=O)N[C@@H](CCC(=O)O)C(=O)O)cc3)c2c(=O)[nH]1	No
C[C@]12CC[C@H](O)CC1=CC[C@@H]1[C@@H]2CC[C@]2(C)C(c3cccnc3)=CC[C@@H]12	No

Input line: Hello, I need to know if Cc1ccc(F)c(NC(=O)Nc2ccc(-c3cccc4[nH]nc(N)c34)cc2)c1 has measured growth inhibition by drug plus 177Lu-lilotomab satetraxetan not below 0.5. Thanks!
Output line: Yes

Input line: Hello, I need to know if C[C@@H](Oc1cc(-c2cnn(C3CCNCC3)c2)cnc1N)c1c(Cl)ccc(F)c1Cl has measured growth inhibition by drug plus 177Lu-lilotomab satetraxetan not below 0.5. Thanks!
Output line: Yes

Input line: Hello, I need to know if CC(C)(C)c1[nH]cnc1/C=c1\[nH]c(=O)/c(=C/c2ccccc2)[nH]c1=O has measured growth inhibition by drug plus 177Lu-lilotomab satetraxetan not below 0.5. Thanks!
Output line: Yes

Input line: Hello, I need to know if Cn1nnc2c(C(N)=O)ncn2c1=O [Temozolomide] has measured growth inhibition by drug plus 177Lu-lilotomab satetraxetan not below 0.5. Thanks!
Output line: Yes

Input line: Hello, I need to know if CC(C)CC(=O)Nc1n[nH]c2c1CN(C(=O)C1CCN(C)CC1)C2(C)C has measured growth inhibition by drug plus 177Lu-lilotomab satetraxetan not below 0.5. Thanks!
Output line: No
